// reported PBM E-score per item
target: Ste12 (UniProt P13574); assay: PBM E-score (8-mer binding enrichment) (E-score (-0.5 to 0.5)); higher = stronger / more preferred TF binding; conditions: protein concentration: 200 nM; construct: GST-DNA-binding domain
Sequence (P13574 whole entry, the tested form may be a part): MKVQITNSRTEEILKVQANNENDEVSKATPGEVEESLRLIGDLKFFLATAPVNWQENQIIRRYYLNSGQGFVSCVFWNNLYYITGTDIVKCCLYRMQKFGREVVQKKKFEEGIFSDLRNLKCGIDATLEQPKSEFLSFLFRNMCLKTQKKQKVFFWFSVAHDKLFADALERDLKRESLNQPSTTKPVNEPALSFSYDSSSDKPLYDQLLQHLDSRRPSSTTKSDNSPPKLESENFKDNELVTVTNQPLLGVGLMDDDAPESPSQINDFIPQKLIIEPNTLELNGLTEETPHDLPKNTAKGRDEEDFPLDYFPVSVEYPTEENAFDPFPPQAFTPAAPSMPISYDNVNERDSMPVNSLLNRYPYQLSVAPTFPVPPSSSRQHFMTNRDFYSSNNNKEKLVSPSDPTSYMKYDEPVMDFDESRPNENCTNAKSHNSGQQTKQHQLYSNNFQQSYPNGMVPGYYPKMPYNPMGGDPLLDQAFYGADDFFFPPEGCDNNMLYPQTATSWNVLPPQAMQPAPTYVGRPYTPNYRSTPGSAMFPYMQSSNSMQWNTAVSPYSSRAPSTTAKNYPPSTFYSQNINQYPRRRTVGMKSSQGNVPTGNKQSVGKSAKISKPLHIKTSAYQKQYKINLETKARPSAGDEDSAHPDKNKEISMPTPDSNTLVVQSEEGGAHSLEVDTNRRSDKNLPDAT
In all, about 33,000 sequences were measured (“E-score (-0.5 to 0.5)”: median about -0.01, highest 2% from about 0.26 on). The list comes from a sample in which the highest values are over-represented; it also holds close analogues and randomly drawn sequences.
Please reply with the value in numeric form only.

Completed entries (count: 2):
Input sequence	Measurement target	Readout name	Measurement
AAAGTCCC	Ste12 (UniProt P13574)	PBM E-score	-0.0967
CAAACCTC	Ste12 (UniProt P13574)	PBM E-score	-0.105

Identify measured PBM E-score corresponding to "GGCAAAAA"
0.346
